Tested on: Ruminococcus gnavus DSM 108212
Test: fold change of Tryptamine concentration vs plate DMSO controls (fold change (ratio)); higher = more amine produced, active = hit call of the paper (significant change in both replicates, either direction)
Details: incubation time: 27 h, anaerobic, 37 °C
Where a name gives a salt, the structure may show the parent alone.
Lab note: compare fold change of Tryptamine concentration against 1. Equal or greater, write 1 (yes). Smaller, write 0 (no).

molecule="S=C([S-])NCCNC(=S)[S-].S=C([S-])NCCNC(=S)[S-].[Mn+2].[Zn+2] (20 µM)" class_assignment="1 (yes)"
molecule="COC(=O)C1=C(C#N)NC(C)=C(C(=O)OC(C)C)C1c1cccc([N+](=O)[O-])c1 (stereo not drawn) [Nilvadipine] (20 µM)" class_assignment="1 (yes)"
molecule="CCCOC(=O)NCCCN(C)C (20 µM)" class_assignment="1 (yes)"
molecule="OCCN1CCN(CC/C=C2/c3ccccc3Sc3ccc(Cl)cc32)CC1 [Zuclopenthixol dihydrochloride] (20 µM)" class_assignment="0 (no)"
molecule="NS(=O)(=O)c1cc2c(cc1Cl)NCNS2(=O)=O [Hydrochlorothiazide] (20 µM)" class_assignment="1 (yes)"

---

Reported values of fold change of Cadaverine concentration for individual entries
System: Klebsiella aerogenes DSM 30053
Test: fold change of Cadaverine concentration vs plate DMSO controls (fold change (ratio)); higher = more amine produced, active = hit call of the paper (significant change in both replicates, either direction)
Conditions: incubation time: 27 h, anaerobic, 37 °C
Structures can show the parent of a compound that is named as a salt.
ENDPOINT_NAME: fold change of Cadaverine concentration

compound="CC(=O)Nc1c(I)c(NC(C)=O)c(I)c(C(=O)O)c1I [Diatrizoic acid dihydrate] (20 µM)" system_tested="Klebsiella aerogenes DSM 30053" measured_value=0.988
compound="CC(=O)CC(c1ccc([N+](=O)[O-])cc1)c1c(O)c2ccccc2oc1=O (centres undefined) [Acenocoumarol] (20 µM)" system_tested="Klebsiella aerogenes DSM 30053" measured_value=1.01
compound="C[C@H](CCC(=O)O)[C@H]1CC[C@H]2[C@@H]3[C@@H](O)C[C@@H]4C[C@H](O)CC[C@]4(C)[C@H]3CC[C@]12C [Urosiol] (20 µM)" system_tested="Klebsiella aerogenes DSM 30053" measured_value=1.05
compound="NC1CCN(c2nc3c(cc2F)c(=O)c(C(=O)O)cn3-c2ccc(F)cc2F)C1 (centres undefined) [Tosufloxacin hydrochloride] (20 µM)" system_tested="Klebsiella aerogenes DSM 30053" measured_value=0.978

---

Reported values of growth for individual entries
Tested on: Klebsiella aerogenes DSM 30053
Assay: growth (OD595) fold change vs plate DMSO controls (fold change (ratio)); higher = more growth
Conditions: incubation time: 27 h, anaerobic, 37 °C
Structures can show the parent of a compound that is named as a salt.
ENDPOINT_NAME: growth

compound="CN(C)CCC=C1c2ccccc2CCc2ccccc21 [Amitryptiline hydrochloride] (20 µM)" endpoint_name=growth measured_value=1.06
compound="CCC(=O)O[C@]1(C(=O)CCl)[C@@H](C)C[C@H]2[C@@H]3CCC4=CC(=O)C=C[C@]4(C)[C@@]3(F)[C@@H](O)C[C@@]21C [Clobetasol propionate] (20 µM)" endpoint_name=growth measured_value=1.06
compound="CC(=O)O[C@H]1C[C@@H]2CC[C@@H]3[C@H](CC[C@@]4(C)[C@H]3C[C@H]([N+]3(C)CCCCC3)[C@@H]4OC(C)=O)[C@@]2(C)C[C@@H]1N1CCCCC1 [Vecuronium bromide] (20 µM)" endpoint_name=growth measured_value=1.01
compound="COc1ccc(C(=O)CC(=O)c2ccc(C(C)(C)C)cc2)cc1 [Avobenzone] (20 µM)" endpoint_name=growth measured_value=0.975
compound="CC(=O)N[C@@H](CCC(N)=O)C(=O)O [Acetyl-L-glutamine] (20 µM)" endpoint_name=growth measured_value=0.977
compound="CC[C@H](C)C(=O)O[C@H]1C[C@H](O)C=C2C=C[C@H](C)[C@H](CC[C@@H](O)C[C@@H](O)CC(=O)O)[C@H]21 [Pravastatin] (20 µM)" endpoint_name=growth measured_value=0.973
compound="Cc1ccc(Nc2c(F)cccc2Cl)c(CC(=O)O)c1 [Lumiracoxib] (20 µM)" endpoint_name=growth measured_value=1.1
compound="NCCc1c[nH]cn1 [Histamine dihydrochloride] (20 µM)" endpoint_name=growth measured_value=1.01
compound="CN(CCOc1ccc(NS(C)(=O)=O)cc1)CCc1ccc(NS(C)(=O)=O)cc1 [Dofetilide] (20 µM)" endpoint_name=growth measured_value=1.03
compound="Cc1cccc(Nc2ccccc2C(=O)O)c1C [Mefenamic acid] (20 µM)" endpoint_name=growth measured_value=0.961
compound="C[C@H]1[C@H](OC(=O)CCC(=O)O)O[C@@H]2O[C@@]3(C)CC[C@H]4[C@H](C)CC[C@@H]1[C@@]24OO3 [Artesunate] (20 µM)" endpoint_name=growth measured_value=1.03
compound="C[C@@H](O)[C@H]1C(=O)N2C(C(=O)O)=C(S[C@@H]3CN[C@H](CNS(N)(=O)=O)C3)[C@H](C)[C@H]12 [Doripenem monohydrate] (20 µM)" endpoint_name=growth measured_value=0.281
compound="OCC(O)CN1CCN(c2ccccc2)CC1 (stereo not given) [Dropropizine] (20 µM)" endpoint_name=growth measured_value=1.02
compound="Nc1nc(=O)[nH]cc1F [Flucytosine] (20 µM)" endpoint_name=growth measured_value=0.986
compound="CC(C)(C)NC[C@H](O)COc1ccccc1C1CCCC1 [Penbutolol sulfate] (20 µM)" endpoint_name=growth measured_value=0.985

---

Test system: Klebsiella aerogenes DSM 30053
Assay: growth (OD595) fold change vs plate DMSO controls (fold change (ratio)); higher = more growth
Details: incubation time: 27 h, anaerobic, 37 °C
Structures can show the parent of a compound that is named as a salt.
ENDPOINT_NAME: growth

compound="CC[C@]12CCCN3CCc4c(n(c5ccccc45)[C@@](O)(C(=O)OC)C1)[C@@H]32 [Vincamine] (20 µM)" endpoint_name=growth measured_value=1.05
compound="c1cnc(N2CCN(Cc3ccc4c(c3)OCO4)CC2)nc1 [Piribedil] (20 µM)" endpoint_name=growth measured_value=1.07
compound="Cc1ccc(C)c(OCCCC(C)(C)C(=O)O)c1 [Gemfibrozil] (20 µM)" endpoint_name=growth measured_value=1.07
compound="CC(=O)OCC(=O)[C@@]1(O)CC[C@H]2[C@@H]3CCC4=CC(=O)CC[C@]4(C)[C@@]3(F)[C@@H](O)C[C@@]21C [Fludrocortisone acetate] (20 µM)" endpoint_name=growth measured_value=1.03
compound="Cc1cccc(Nc2ccncc2S(=O)(=O)NC(=O)NC(C)C)c1 [Torsemide] (20 µM)" endpoint_name=growth measured_value=1
compound="OC[C@@H](O)[C@H](O)[C@@H](O)CO [Xylitol] (50 µM)" endpoint_name=growth measured_value=1.11
compound="C[N+]1(C)CCC(OC(=O)C(O)(c2ccccc2)C2CCCC2)C1 (stereo not given) [Glycopyrrolate bromide] (20 µM)" endpoint_name=growth measured_value=1.01
compound="Clc1ccccc1C(c1ccccc1)(c1ccccc1)n1ccnc1 [Clotrimazole] (20 µM)" endpoint_name=growth measured_value=0.998
compound="Nc1nc(O)c2ncn(CCC(CO)CO)c2n1 [Penciclovir] (20 µM)" endpoint_name=growth measured_value=1.06
compound="CC=C(C)C(=O)OC1C(OC(C)=O)C2(CO)C(O)CC3(C)C(=CCC4C5(C)CCC(OC6OC(C(=O)O)C(OC7OC(CO)C(O)C(O)C7O)C(O)C6OC6OC(CO)C(O)C(O)C6O)C(C)(CO)C5CCC43C)C2CC1(C)C (stereo not drawn) [Beta-Escin] (20 µM)" endpoint_name=growth measured_value=1.01
compound="CC(C)NCC(O)c1ccc(O)c(O)c1 (single isomer, unassigned; (-)) [(-) Isoproterenol hydrochloride] (20 µM)" endpoint_name=growth measured_value=1.15
compound="O=C1NCCN1c1ncc([N+](=O)[O-])s1 [Niridazole] (20 µM)" endpoint_name=growth measured_value=0.756
compound="C[C@]12CCC(=O)C=C1C=C[C@@H]1[C@@H]2CC[C@@]2(C)[C@H]1CC[C@@]21CCC(=O)O1 [Canrenone] (20 µM)" endpoint_name=growth measured_value=1.01
compound="COC(=O)[C@H](Cc1ccccc1)NC(=O)[C@@H](N)CC(=O)O [Aspartame] (50 µM)" endpoint_name=growth measured_value=0.997
compound="OC(c1cc(C(F)(F)F)nc2c(C(F)(F)F)cccc12)C1CCCCN1 (stereo not given) [Mefloquine hydrochloride] (20 µM)" endpoint_name=growth measured_value=0.808

---

Tested on: Escherichia coli IAI1
Assay: fold change of Putrescine concentration vs plate DMSO controls (fold change (ratio)); higher = more amine produced, active = hit call of the paper (significant change in both replicates, either direction)
Details: incubation time: 27 h, anaerobic, 37 °C
Counter-ions that a name gives are not always drawn.
Reported values of fold change of Putrescine concentration for individual entries
ENDPOINT_NAME: fold change of Putrescine concentration

molecule="CCn1cc(C(=O)O)c(=O)c2ccc(C)nc21 [Nalidixic acid sodium salt] (20 µM)" endpoint_name="fold change of Putrescine concentration" measured_value=0.671
molecule="CCOC(=O)/C=C(C)/C=C/C=C(C)/C=C/c1c(C)cc(OC)c(C)c1C [Etretinate] (20 µM)" endpoint_name="fold change of Putrescine concentration" measured_value=0.998
molecule="CC(CN(C)C)CN1c2ccccc2CCc2ccccc21 (centres undefined) [Trimipramine maleate salt] (20 µM)" endpoint_name="fold change of Putrescine concentration" measured_value=0.961
molecule="CCOc1ccc(Cc2nccc3cc(OCC)c(OCC)cc23)cc1OCC [Ethaverine hydrochloride] (20 µM)" endpoint_name="fold change of Putrescine concentration" measured_value=1.05
